B1: Hairpin Ribozyme (parent)
chain: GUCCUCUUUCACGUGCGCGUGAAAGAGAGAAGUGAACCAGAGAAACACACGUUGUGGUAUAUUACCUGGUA

Variants of: B1
Assay: self-cleavage, relative activity (ratio to wild type); higher = more cleavage; co-transcriptional
Assign self-cleavage to each entry below.
Field format: numeric only.

May I ask what self-cleavage has been recorded for A31U A39G ?
0.0984

Lookup U5G G40U
0.13

Lookup A36C C50G
0.131

Lookup A39U A61G
0.0916

Lookup U8G G56C
0.0783

Lookup A24U G54U
0.476

Lookup U7C G13C
0.518

Lookup A43G A47C
0.172

Lookup A23C A35C
0.797

Lookup G32C U33C
0.0618

Lookup C4G C16U
0.194
